Taken from ChEMBL document CHEMBL1134363.

- Study Target: UniProt:P31652
- Sequence (P31652 whole entry): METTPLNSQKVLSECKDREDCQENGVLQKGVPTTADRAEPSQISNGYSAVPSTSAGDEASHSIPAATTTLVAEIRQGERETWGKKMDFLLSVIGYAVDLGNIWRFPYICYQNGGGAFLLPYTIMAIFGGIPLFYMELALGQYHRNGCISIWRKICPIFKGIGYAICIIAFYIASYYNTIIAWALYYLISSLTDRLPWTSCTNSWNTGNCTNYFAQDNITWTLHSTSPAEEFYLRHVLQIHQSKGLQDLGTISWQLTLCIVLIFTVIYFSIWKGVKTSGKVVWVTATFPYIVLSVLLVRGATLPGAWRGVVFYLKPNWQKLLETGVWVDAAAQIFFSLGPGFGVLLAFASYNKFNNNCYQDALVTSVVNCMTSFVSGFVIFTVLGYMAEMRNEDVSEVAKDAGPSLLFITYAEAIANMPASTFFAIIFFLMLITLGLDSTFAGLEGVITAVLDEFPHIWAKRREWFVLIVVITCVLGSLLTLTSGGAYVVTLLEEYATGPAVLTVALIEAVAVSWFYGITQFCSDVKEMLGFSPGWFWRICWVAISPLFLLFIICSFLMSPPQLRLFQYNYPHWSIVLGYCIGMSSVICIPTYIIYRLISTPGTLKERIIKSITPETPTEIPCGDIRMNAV
- Method: In vitro binding affinity was determined against serotonin reuptake site of rat in presence of [3H]paroxetine radioligand
Assay Readout: pKi
Just the number, please; pKi means minus log10 of the concentration in mol/L.

Entry C1=NCC2(CC3(Cc4ccccc4C3)C2)N1 : pKi on UniProt:P31652 = 5.20

The value of pKi recorded for C1=NCC(CC2=Cc3ccccc3OC2)N1 (stereo not given) when tested on UniProt:P31652 reads 6.60

Reading of pKi for Cc1ccc2c(c1)C=C(CC1CN=CN1)CC2 (stereo not given) with UniProt:P31652: 7.20

# pKi measured on UniProt:P31652 for item C[C@@]1(C[C@H]2CN=CN2)CCc2ccccc2C1 = 7.50
